B1: TPR t1 (parent)
chain: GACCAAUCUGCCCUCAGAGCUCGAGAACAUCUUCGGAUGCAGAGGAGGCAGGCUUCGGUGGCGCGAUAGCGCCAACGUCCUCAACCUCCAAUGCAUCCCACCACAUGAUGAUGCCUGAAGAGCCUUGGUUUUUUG

variants of: B1; test: polymerase ribozyme fitness, log enrichment relative to wild type (log ratio); higher = more active; in vitro selection for triplet polymerase activity
Would you mind labelling by polymerase ribozyme fitness (log ratio)? At or over -0.7 is Yes, under is No.

Input line: Does polymerase ribozyme fitness (log ratio) meet or surpass -0.7 for GACCAAUCUGCCCUCAGAGCUCGAGAACAUCUUCGUAUGCAGAGGAGGCAGGCUUCGGUGGCGCGAUAGCGGCAACGUCCUCAACCUCCAAUGCAUCCCACCACAUGAUGAUGCCUGAAGAGCUUUGGUUUUUUG [G36U C72G C124U] ?
Output line: Yes

Input line: Answer whether polymerase ribozyme fitness (log ratio) of GACCAAUCUGCCCUCAGAGCUCGAGAACACCUUCGGAUGUAGAGGAGGCAGGGUUGGGUGGUGCGAUAGCGCCAAAGUCCUCAACCUCCAAUGCAUCCCACCACAUGAUGAUGCCUGAAGAGCCUUGGUUUUUUG [U30C C40U C53G C56G C62U C76A] is greater than or equal to -0.7.
Output line: No

Input line: Does polymerase ribozyme fitness (log ratio) meet or surpass -0.7 for GACCAAUCAGCCCUCAGAGCUCGAGAACAUCUUCGGAUGCAGAGGAGGCAGGCUUCGGUGGCGCGAUAGCGCCAACGUCCUCAACCUCCAAUGCAUCCCACCACAUGAUUAUGCCUGAAGAGCGUUGGUUUUUUG [U9A G110U C124G] ?
Output line: Yes

Input line: Check this variant for polymerase ribozyme fitness (log ratio) at or above -0.7: GACCAAUCUGCCCUCAGAGCUCGAGAACAUCUCCGGAUGCAGAGGAGGCAGGCUUCGGUCGCGCGAUAGCGCCAACGUCCUCAACCUCCAAUGCAUCCCACCACAUGAUGAUGCCUGAAGAGCCUUGGUUUUUUG [U33C G60C]
Output line: No

Input line: # check: polymerase ribozyme fitness (log ratio) of GACCAAUCUGCCCUCAGAGCUCGAGAACAUCUUCGGAUGCAGAGGAGGCAGGCUUCGGUGGCGCGAUAGCGCCAACGUCCUCAACCUCCAAUGCAUCCCACCACAUGAUGAUGCCUGAAGUGCCUUGGUUUUUUC [A121U G135C] is greater than or equal to -0.7
Output line: Yes

Input line: Say whether GACCAAUCUGCCCUCAGAGCUCGAGAACAUCUUCGGAUGCAGAGGAGUCAGGCUUCGGUGGCGCGAUAGCGCCAACGUCCUCAACCUCCAAUGCAUCCCACCACAUGAUGAUGCCUGAACAGCCUUGGUUUUUUG [G48U G120C] shows polymerase ribozyme fitness (log ratio) of -0.7 or more.
Output line: Yes

Input line: Does GACCAAUCUGCCCUCAGAGCUCGAGAACAUCUUCGGAUGCAGAGGAGGCAGGCUUCGGUGGCGCGAUAGCGCCAACGUCCUCAACCUCCAAUGCAUCCCACCACAAGAUGAUGCCUGAAGAGCCUUGGAUUUUUG [U106A U129A] have a reported polymerase ribozyme fitness (log ratio) of at least -0.7?
Output line: No

Input line: Can GACGAAUCUGCCCUCAGAGCUCGAGAACAUCUUCGGAUGCAGAUGAGGCAGGCUUCGGUGGCGCGAUAGCGCCAACGUCCUCAACCUACAAUGCAUCCCACCACAUGAUGAUGCCUGAAGAGCAUUGGUUUUUUG [C4G G44U C88A C124A] be said to have polymerase ribozyme fitness (log ratio) at or above -0.7?
Output line: No

Input line: Kindly determine if polymerase ribozyme fitness (log ratio) recorded for GACAAAUCUGCCCUCAGAGCUCGAGAACAUCUUCGGAUGCAGAGGAGGCAGGCUUCGGUGGCGCGAUAGCGCCAACGUCCUCAACCUCCAAUGCAUCCCACCACAUGAUGAUGCCUGAAGAGACUUGGUUUUUUG [C4A C123A] is above or exactly -0.7.
Output line: Yes

Input line: Evaluate GACCAAUCUGCCCUCAGAGCUCGAGAACAUCUUCGGAUGCAGAGGAUGCAGGCUUCGGUGGCGUGAUAGCGCCAACGUCCUCAACCUCCAAUGCAUCCCACCACAUGAUGAUGCCUGAAGUGCCUUGGUUUUUUG [G47U C64U A121U] : polymerase ribozyme fitness (log ratio) at minimum -0.7?
Output line: Yes

Input line: Exam item: decide whether the reported polymerase ribozyme fitness (log ratio) for GACCAAUCUGCCCUCAGAGCUCGAGAACAUCUUCGGAUGCAGAGGAGGCAGGCUUAGGUGGCGCGAUAGCGCCAACGUCCUCUAUCUCCAAUGCAUCCUACCACAUGAUGAUGCCUGAAGAGCCUUGGUUUUUUG [C56A A83U C85U C99U] is at least -0.7.
Output line: No

Input line: I'd appreciate it if you could say whether GACCAAUCUGGCCUCAGAGCUCGAGAACAUCUUCGGAUGCAGAGGAGGCAGGCUUCGGUGGCGCGAUAGCACCAACGUCCUCAACCUCUAAUGCAUCCCACCACAUGAUUAUGCCUGAAGAGCCUUGGUUUUUUG [C11G G71A C89U G110U] has polymerase ribozyme fitness (log ratio) at least equal to -0.7.
Output line: No

Input line: Check the entry GACCAAUCUGCCCUCAAAGCUCGAGAACAUCUUCGGAUGCAGAGGAGGGGGGCUUCGGUGGCGCGAUAGCGCCAACGUCCUCAACCUCCAAUGCAUCCCACCACAAGAUGAUGCCUGAAGAGCCUUGGUUUUUUG [G17A C49G A50G U106A] : does polymerase ribozyme fitness (log ratio) equal or exceed -0.7?
Output line: No

Input line: Test whether the variant GACCAAUCGGCCCUCAGAGCUCGAGAACAUCUUCGGAUGCAGAGGAGGCAGGCUUCGGUGGCGCGUUAGCGCCAACGUCAUCAAUCUCCAAUGCAUCCCACCACAUGAUGAUGCCUGAAGAGCCUUGGUUUUUUG [U9G A66U C80A C85U] records polymerase ribozyme fitness (log ratio) of -0.7 or higher.
Output line: No

Input line: State whether the measured polymerase ribozyme fitness (log ratio) reaches -0.7, counting equality as reaching it, for GACCAAUAUGCCCUCAGAGCUCGAGAACAUCUUCGGAUGCAGAGGAGGCAGGCUUCGGUGGCGCGACAGCGCCAACGUCCUCAACCUCCAAUGCAUCCCACCACAUGAUGAUGCCUGAAGAGCCUUGGUUUUUUG [C8A U67C]
Output line: No

Input line: Reported polymerase ribozyme fitness (log ratio) at or above -0.7? GACCAAUCUGCCCUCAGUGCUCGAGAACAUCUUCGGAUGCAGAGGAGGCAGGCUUCGGUGGCGCGAUAGCGCCAACGUCCUCAACCUCCAAUGCAUCCCACCACAUGAUGAUGCCUCAAGAGCCUUGGUUUUUUG [A18U G117C]
Output line: No

Input line: Textbook exercise: given the entry GACCAAUCUCCCCUCAGAGCUCGAGAACAUCUUCGGAUGCAGAGGAGGGAGGCUUCGGUGGCGUGAUAGCGCCAACGUCCUCGACCUCCAAUGCAUCCCACCACAUGAUGAUGCCUGAAGAGCCAUGGUUUUUUG [G10C C49G C64U A83G U125A] , state whether its polymerase ribozyme fitness (log ratio) is greater than or equal to -0.7.
Output line: No

Input line: Is polymerase ribozyme fitness (log ratio) at least -0.7? Consider GACCAAUAUGCCCUCAGAGCUCGAGAACAUCUUCGGAUGCAGCGGAGGCAGGCUUCGGUGGCGCGAUAGGGCCAACGUCCUCAACCUCCAAUGCAUCCCACCACAUGAUGAUGCCUGAAGAGCCUUGGUUUUUUG [C8A A43C C70G]
Output line: No

Input line: Test whether the variant GACCAAUCUGCCCUCAGAGCUCGAGAACAUCUUCGGAUGCAGAGGAGGCAGGCUUCGGCGGCGCGGUAGCGCCAACGUCCUCAACCUCCAAUGCAUCCCACCACAUGAUGAUGCCUGAAGAGCCUUGGUUUUUUG [U59C A66G] records polymerase ribozyme fitness (log ratio) of -0.7 or higher.
Output line: No

Input line: Textbook exercise: given the entry GACCAAUCUGCCCUCAGAGCUCGAGAACAUCUUCGGAUGCAGAGGAGGCAGGCUUCGGUGGCGCGAUAGCGCCAACGUCCUCAACCUCCAAUGCAUCCCACCACAUGAUGAUGCCUAAAGAGCCUUGCUUUUUUG [G117A G128C] , state whether its polymerase ribozyme fitness (log ratio) is greater than or equal to -0.7.
Output line: No

Input line: For this variant, is measured polymerase ribozyme fitness (log ratio) -0.7 or higher? GACCAAUCUGCCCUCAGAGCUCGAGAACAUCUUCGGAUGCAGAGAAGGCAGGCUUCGGUGGCACGACAGCGCCAACGUCCUUAGCCUCCAAUGCAACGCACCACAUGAUGAUGCCUGAAGAGCUUUGGUUUUUUG [G45A G63A U67C C82U A84G U96A C98G C124U]
Output line: No
